- Tested on: 947758-054-R-J2-PDC spheroid growth, percent test/control;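 further: spheroids exposed to compounds for one week before readout; 100% = DMSO vehicle control wells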
- Assay Name: Anticancer human tumor 947758-054-R-J2-PDC patient-derived colon adenocarcinoma cell line growth inhibition [CLK]
- Stated Conditions: second compound 10 µM; first compound 0.1 µM; hits give low values; spheroids with HUVEC and MSC
Quantity Measured: viability, T/C (%)
Lab book: enter the figure in %, no units written.

### Prompt Any idea what its viability, T/C is? The compound is CCN1CCN(Cc2ccc(Nc3ncc(F)c(-c4cc(F)c5nc(C)n(C(C)C)c5c4)n3)nc2)CC1 + CN1CCN(c2cc(C(=O)Nc3cc4cc(-c5cnn(C)c5)ccc4cn3)ccn2)CC1
### Response 0.4

### Prompt Quick one: viability, T/C of CC(=O)O[C@H]1C(=O)[C@@]2(C)[C@H]([C@H](OC(=O)c3ccccc3)[C@]3(O)C[C@H](OC(=O)[C@H](O)[C@@H](NC(=O)c4ccccc4)c4ccccc4)C(C)=C1C3(C)C)[C@]1(OC(C)=O)CO[C@@H]1C[C@@H]2O + CNC(=O)c1ccc(Nc2nc(OC3CCCC3)c3c(-c4ccc5nc(C)oc5c4)c[nH]c3n2)c(OC)c1 ?
### Response 42.1

### Prompt Can you share its viability, T/C? I mean this compound: COc1ccc([C@@H](O)c2cc(-c3ncnc4cc(N5CCOCC5)ccc34)c(F)cc2Cl)nn1 + CNC(=O)c1ccc(Nc2nc(OC3CCCC3)c3c(-c4ccc5nc(C)oc5c4)c[nH]c3n2)c(OC)c1
### Response 31.9

### Prompt Any idea what its viability, T/C is? The compound is CC(Nc1ccc2c(c1)OCCn1cc(N3C(=O)OCC3C(F)F)nc1-2)C(N)=O (centres undefined) + CNC(=O)c1ccc(Nc2nc(OC3CCCC3)c3c(-c4ccc5nc(C)oc5c4)c[nH]c3n2)c(OC)c1
### Response 10.9

### Prompt Reported viability, T/C for COc1cccc2c1C(=O)c1c(O)c3c(c(O)c1C2=O)CC(O)(C(=O)CO)CC3OC1CC(N)C(O)C(C)O1 (centres undefined) + CN1CCN(c2cc(C(=O)Nc3cc4cc(-c5cnn(C)c5)ccc4cn3)ccn2)CC1 : what is it?
### Response 1.26

### Prompt May I ask what viability, T/C has been recorded for CCc1c2c(nc3ccc(O)cc13)-c1cc3c(c(=O)n1C2)COC(=O)[C@]3(O)CC + CNC(=O)c1ccc(Nc2nc(OC3CCCC3)c3c(-c4ccc5nc(C)oc5c4)c[nH]c3n2)c(OC)c1 ?
### Response 5.96

### Prompt Which measured viability, T/C value corresponds to CC1(C)CCC(CN2CCN(c3ccc(C(=O)NS(=O)(=O)c4ccc(NCC5CCOCC5)c([N+](=O)[O-])c4)c(Oc4cnc5[nH]ccc5c4)c3)CC2)=C(c2ccc(Cl)cc2)C1 + CN1CCN(c2cc(C(=O)Nc3cc4cc(-c5cnn(C)c5)ccc4cn3)ccn2)CC1 ?
### Response 3.93

### Prompt Quick check: viability, T/C of CCCS(=O)(=O)Nc1ccc(F)c(C(=O)c2c[nH]c3ncc(-c4ccc(Cl)cc4)cc23)c1F + CNC(=O)c1ccc(Nc2nc(OC3CCCC3)c3c(-c4ccc5nc(C)oc5c4)c[nH]c3n2)c(OC)c1 ?
### Response 20.9

### Prompt Using the record for O=c1[nH]cc(F)c(=O)[nH]1 + CN1CCN(c2cc(C(=O)Nc3cc4cc(-c5cnn(C)c5)ccc4cn3)ccn2)CC1 , report its viability, T/C.
### Response 0.21

### Prompt Requested field: viability, T/C. Item: COc1c(OCCCN2CCOCC2)ccc2c3n(c(=NC(=O)c4cnc(N)nc4)nc12)CCN3 + CNC(=O)c1ccc(Nc2nc(OC3CCCC3)c3c(-c4ccc5nc(C)oc5c4)c[nH]c3n2)c(OC)c1
### Response 4.43

### Prompt // query viability, T/C value for entry CCN1CCN(Cc2ccc(Nc3ncc(F)c(-c4cc(F)c5nc(C)n(C(C)C)c5c4)n3)nc2)CC1 + CNC(=O)c1ccc(Nc2nc(OC3CCCC3)c3c(-c4ccc5nc(C)oc5c4)c[nH]c3n2)c(OC)c1
### Response 31.6

### Prompt Can you share its viability, T/C? I mean this compound: CC1(C)CCC(CN2CCN(c3ccc(C(=O)NS(=O)(=O)c4ccc(NCC5CCOCC5)c([N+](=O)[O-])c4)c(Oc4cnc5[nH]ccc5c4)c3)CC2)=C(c2ccc(Cl)cc2)C1 + CNC(=O)c1ccc(Nc2nc(OC3CCCC3)c3c(-c4ccc5nc(C)oc5c4)c[nH]c3n2)c(OC)c1
### Response 42.5

### Prompt Which value of viability, T/C has been reported for CCCS(=O)(=O)Nc1ccc(F)c(C(=O)c2c[nH]c3ncc(-c4ccc(Cl)cc4)cc23)c1F + CN1CCN(c2cc(C(=O)Nc3cc4cc(-c5cnn(C)c5)ccc4cn3)ccn2)CC1 in the records?
### Response 1.75

### Prompt viability, T/C lookup needed for C=CC(=O)N1CCN(c2nc(=O)n(-c3c(C)ccnc3C(C)C)c3nc(-c4c(O)cccc4F)c(F)cc23)C(C)C1 (centres undefined) + CNC(=O)c1ccc(Nc2nc(OC3CCCC3)c3c(-c4ccc5nc(C)oc5c4)c[nH]c3n2)c(OC)c1 , thanks.
### Response 28.1

### Prompt Quick check: viability, T/C of CC1COCCN1c1cc(C2(S(C)(=N)=O)CC2)nc(-c2ccnc3[nH]ccc23)n1 (centres undefined) + CN1CCN(c2cc(C(=O)Nc3cc4cc(-c5cnn(C)c5)ccc4cn3)ccn2)CC1 ?
### Response 0.28

### Prompt // lookup viability, T/C for O=C(c1cc(Cc2n[nH]c(=O)c3ccccc23)ccc1F)N1CCN(C(=O)C2CC2)CC1 + CNC(=O)c1ccc(Nc2nc(OC3CCCC3)c3c(-c4ccc5nc(C)oc5c4)c[nH]c3n2)c(OC)c1
### Response 40.9

### Prompt Query: viability, T/C; subject: C#Cc1c(F)ccc2cc(O)cc(-c3ncc4c(N5CC6CCC(C5)N6)nc(OCC56CCCN5CC(F)C6)nc4c3F)c12 (centres undefined) + CNC(=O)c1ccc(Nc2nc(OC3CCCC3)c3c(-c4ccc5nc(C)oc5c4)c[nH]c3n2)c(OC)c1
### Response 24.8

### Prompt Can you look up the measured viability, T/C of Cn1ncnc1[C@H]1c2n[nH]c(=O)c3cc(F)cc(c23)N[C@@H]1c1ccc(F)cc1 + CN1CCN(c2cc(C(=O)Nc3cc4cc(-c5cnn(C)c5)ccc4cn3)ccn2)CC1 for me?
### Response 2.18

### Prompt Returns the measured viability, T/C for the input compound. Input: Cn1ncnc1[C@H]1c2n[nH]c(=O)c3cc(F)cc(c23)N[C@@H]1c1ccc(F)cc1 + CNC(=O)c1ccc(Nc2nc(OC3CCCC3)c3c(-c4ccc5nc(C)oc5c4)c[nH]c3n2)c(OC)c1
### Response 26.8
